Target: G-protein coupled receptor 6 (Homo sapiens)
Sequence (P46095 whole entry): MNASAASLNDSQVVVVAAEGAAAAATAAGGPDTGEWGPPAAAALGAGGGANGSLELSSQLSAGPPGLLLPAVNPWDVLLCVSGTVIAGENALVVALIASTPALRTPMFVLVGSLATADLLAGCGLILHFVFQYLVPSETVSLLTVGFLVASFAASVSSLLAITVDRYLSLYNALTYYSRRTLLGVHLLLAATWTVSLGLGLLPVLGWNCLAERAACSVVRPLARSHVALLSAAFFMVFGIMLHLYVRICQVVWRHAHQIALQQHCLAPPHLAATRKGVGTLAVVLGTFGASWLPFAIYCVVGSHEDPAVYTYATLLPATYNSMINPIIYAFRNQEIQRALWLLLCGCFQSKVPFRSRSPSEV
Assay: Modulation activity at GPR6 receptor (unknown origin) expressed in CHO-K1 cells assessed as inhibition of constitutive cAMP activity incubated for 45 mins by Perkin Elmer Lance HTRF Ultrac-AMP assay
Type: functional, cell-based
READOUT TYPE: IC50

* CC(=O)N1CCc2nc(N3CCC(C(=O)c4cc(Cl)ccc4F)CC3)c(NC(C)C)nc2C1 | 13.8 µM

====

Target: G-protein coupled receptor 6 (Homo sapiens)
Test: Modulation activity at GPR6 receptor (unknown origin) expressed in CHO-K1 cells assessed as inhibition of constitutive cAMP activity incubated for 45 mins by Perkin Elmer Lance HTRF Ultrac-AMP assay
Assay type: functional, cell-based
Conditions: cho-k1
pIC50: −log10 of the molar value.
READOUT TYPE: pIC50

• CC(C)Nc1nc2c(nc1N1CCC(C(=O)c3cc(Cl)ccc3F)CC1)CCN(C)C2 = 4.86
